Tested on: H929 human cancer cell lines
Assay: Cellular viability / proliferation (Cell TiterGlo, 72 h)
Format: cell-based
Settings: Homo sapiens, NCI-H929, 72 h, read-out: GI50 on cellular proliferation of H929 human cancer cell lines, H929 cells, 72 h, Cell TiterGlo, 10% FBS
reported-metric: GI50 (µM)
// return numeric value only (unit: µM, not printed)

The examples below pair each entry with its known result.
mol-smiles: COCCn1cc(C(=O)O)c2cc(OCCN3CCN(C)CC3)cc(N3C[C@@H](C)n4c(c(CCCOc5cc(C)c(Cl)c(C)c5)c5ccc(Cl)c(-c6c(C)nn(C)c6C)c54)C3=O)c21
number: 1.1
//
mol-smiles: Cc1cc(N2C[C@@H](C)n3c(c(CCCOc4cc(C)c(Cl)c(C)c4)c4ccc(Cl)c(-c5c(C)nn(C)c5C)c43)C2=O)c2c(c1)cc1n2CCOC1=O
number: 1.4
//
mol-smiles: Cc1cc(OCCCc2c3n(c4c(-c5c(C)nn(C)c5C)c(Cl)ccc24)CCCN(c2cccc4c(C(=O)O)nn(C)c24)C3=O)cc(C)c1Cl
number: 4.5

For the next question, use this compound.
// returns reported GI50 for input Cc1cc(OCCCc2c3n(c4c(-c5c(C)nn(C)c5C)c(Cl)ccc24)[C@H](C)CN(c2cc(COCCN4CCOCC4)cc4cc(C(=O)O)n(C)c24)C3=O)cc(C)c1Cl
0.21

---

Test system: H929 human cancer cell lines
Experiment: Cellular viability / proliferation (Cell TiterGlo, 72 h)
Assay type: cell-based
Details: Homo sapiens, NCI-H929, 72 h, read-out: GI50 on cellular proliferation of H929 human cancer cell lines, H929 cells, 72 h, Cell TiterGlo, 10% FBS
reported-metric: GI50 (µM)
# unit: µM | format: bare number

molecule: COCCn1cc(C(=O)O)c2c(N3C[C@@H](C)n4c(c(CCCOc5cc(C)c(Cl)c(C)c5)c5ccc(Cl)c(-c6c(C)nn(C)c6C)c54)C3=O)cccc21 [Example 181]
target-or-system: H929 human cancer cell lines
unit-descriptor: µM
number: 2
//
molecule: Cc1cc(N2C[C@@H](C)n3c(c(CCCOc4cc(C)c(Cl)c(C)c4)c4ccc(Cl)c(-c5c(C)ncnc5C)c43)C2=O)c2c(c1)cc(C(N)=O)n2Cc1ccccn1 [Example 379]
target-or-system: H929 human cancer cell lines
unit-descriptor: µM
number: 0.56
//
molecule: Cc1cc(OCCCc2c3n(c4c(-c5c(C)nn(C)c5C)c(Cl)ccc24)[C@H](C)CN(c2cn(CC(=O)N4CCN(C)CC4)c4ccc(-c5ncn(C)n5)cc24)C3=O)cc(C)c1Cl [Example 546]
target-or-system: H929 human cancer cell lines
unit-descriptor: µM
number: 0.42

Could you tell me which GI50 is on file for Cc1cc(OCCCc2c3n(c4c(-c5c(C)nn(C)c5C)c(Cl)ccc24)[C@H](C)CN(c2cc(C(=O)O)c4cc[nH]c4c2)C3=O)cc(C)c1Cl [Example 101] ?
2.1

For the molecule COCCOc1cc(N2C[C@@H](C)n3c(c(CCCOc4cc(C)c(Cl)c(C)c4)c4ccc(Cl)c(-c5c(C)n[nH]c5C)c43)C2=O)c2c(c1)cc(C(=O)O)n2C [Example 716] , what GI50 is on record?
0.55

Which measured GI50 value corresponds to Cc1cc(OCCCc2c3n(c4c(-c5c(C)nn(C)c5C)c(Cl)ccc24)[C@H](C)CN(c2cccc4c2c(C(=O)O)cn4C)C3=O)cc(C)c1Cl [Example 182] ?
1.5

What measured GI50 goes with Cc1cc(OCCCc2c3n(c4c(-c5c(C)nn(C)c5C)c(Cl)ccc24)[C@H](C)CN(c2cn(C)c4cc(C(N)=O)ccc24)C3=O)cc(C)c1Cl [Example 277] ?
1.4

Fill blank: measured GI50 of the molecule Cc1cc(OCCCc2c3n(c4c(-c5c(C)nn(C)c5C)c(Cl)ccc24)[C@H](C)CN(c2cn(C)c4ccc(-c5ncn(-c6ncccn6)n5)cc24)C3=O)cc(C)c1Cl [Example 646] is ____.
0.24

Name the recorded GI50 for Cc1cc(OCCCc2c3n(c4c(-c5c(C)nn(C)c5C)c(Cl)ccc24)[C@H](C)CN(c2cccc4c2cc(C#N)n4C)C3=O)cc(C)c1Cl [Example 301] .
8.3

---

Molecular target: Mcl-1 (Homo sapiens (Human))
Sequence (Q07820 172-327): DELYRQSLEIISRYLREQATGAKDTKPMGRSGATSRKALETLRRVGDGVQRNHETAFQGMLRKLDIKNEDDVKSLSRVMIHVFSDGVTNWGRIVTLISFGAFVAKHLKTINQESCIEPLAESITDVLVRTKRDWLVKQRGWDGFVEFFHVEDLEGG
Test: Fluorescence polarization anisotropy (FPA) competition assay, FITC-Bak or FITC-Bim BH3 peptide
Type: binding
Conditions: read-out: Ki for Inhibition of Mcl-1 by FPA assay
pKi: −log10 of the molar value.
Entries and their pKi values follow.

compound: Cc1cc(CCCCc2c(C(=O)N3CCN(c4cc(C(=O)O)ccn4)CC3)n(Cc3cccnc3)c3c(-c4c(C)nn(C)c4C)c(Cl)ccc23)cc(C)c1Cl
pKi: < 6.70

compound: Cc1cc(OCCCc2c3n(c4c(-c5c(C)nn(C)c5C)c(Cl)ccc24)[C@H](C)CN(c2cn(C)c4cc(-c5nn[nH]n5)ccc24)C3=O)cc(C)c1Cl
pKi: > 9.00

compound: Cc1cc(N2C[C@@H](C)n3c(c(CCCOc4cc(C)c(Cl)c(C)c4)c4ccc(Cl)c(-c5c(C)nn(C)c5C)c43)C2=O)c2c(c1)c(C(=O)O)cn2C [Example 183]
pKi: > 9.00

compound: Cc1cc(OCCCc2c3n(c4c(-c5c(C)nn(C)c5C)c(Cl)ccc24)[C@H](C)CN(c2cc(C(=O)O)c4ncccc4c2)C3=O)cc(C)c1Cl
pKi: 8.66

compound: Cc1cc(N2C[C@@H](C)n3c(c(CCCOc4cc(C)c(Cl)c(C)c4)c4ccc(Cl)c(-c5c(C)ncnc5C)c43)C2=O)c2c(c1)c(C)c(C(=O)O)n2C
pKi: > 9.00

# input for lookup
What value of pKi on Mcl-1 (Homo sapiens (Human)) does Cc1cc(OCCCc2c3n(c4c(-c5c(C)nn(C)c5C)c(Cl)ccc24)[C@H](C)CN(c2cccc4cc5n(c24)CCN(C)C5=O)C3=O)cc(C)c1Cl have?
8.31

---

Tested on: H929 human cancer cell lines
Experiment: Cellular viability / proliferation (Cell TiterGlo, 72 h)
Type: cell-based
Settings: Homo sapiens, NCI-H929, 72 h, read-out: GI50 on cellular proliferation of H929 human cancer cell lines, H929 cells, 72 h, Cell TiterGlo, 10% FBS
Lab note: anything with GI50 below 400 nM is marked satisfied; values at 400 nM or higher are marked not satisfied.

mol-smiles: Cc1cc(OCCCc2c3n(c4c(-c5c(C)nn(C)c5C)c(Cl)ccc24)[C@H](C)CN(c2cn(C)c4c(-c5nnn(C)n5)cccc24)C3=O)cc(C)c1Cl
class-assignment: not satisfied

Is GI50 of Cc1cc(OCCCc2c3n(c4c(-c5c(C)nn(C)c5C)c(Cl)ccc24)[C@H](C)CN(c2cn(C)c4ccc(C(=O)NN)cc24)C3=O)cc(C)c1Cl strictly below 400 nM?
not satisfied

is_below(GI50, 400 nM) for COCCOc1cc(N2C[C@@H](C)n3c(c(CCCOc4cc(C)c(Cl)c(C)c4)c4ccc(Cl)c(-c5c(C)nn(C)c5C)c43)C2=O)c2c(c1)c(C(=O)O)cn2Cc1cc(C)cc(C)n1 ?
satisfied

# check: GI50 < 400 nM for Cc1cc(OCCCc2c3n(c4c(-c5c(C)nn(C)c5C)c(Cl)ccc24)[C@H](C)CN(c2cccc4cc(C(=O)O)n(Cc5nccs5)c24)C3=O)cc(C)c1Cl
satisfied

Is it true that GI50 reported for COc1ccc(N2C[C@@H](C)n3c(c(CCCOc4cc(C)c(Cl)c(C)c4)c4ccc(Cl)c(-c5c(C)nc(CN6CCN(C)CC6)nc5C)c43)C2=O)c2c1cc(C(=O)O)n2Cc1ccccn1 is less than 400 nM?
satisfied

---

Tested on: H929 human cancer cell lines
Assay: Cellular viability / proliferation (Cell TiterGlo, 72 h)
Assay type: cell-based
Settings: Homo sapiens, NCI-H929, 72 h, read-out: GI50 on cellular proliferation of H929 human cancer cell lines, H929 cells, 72 h, Cell TiterGlo, 10% FBS
reported-metric: log10 GI50 (log10 of the value in µM)
In plain terms, each number is the log10 of measured GI50 in µM.

compound: Cc1cc(OCCCc2c3n(c4c(-c5c(C)nc(CN6CCC(O)C6)nc5C)c(Cl)ccc24)[C@H](C)CN(c2cn(C)c4ccc(C(=O)O)cc24)C3=O)cc(C)c1Cl (some centres unmarked)
log10 GI50: -0.47
--
compound: Cc1cc(OCCCc2c3n(c4c(-c5c(C)nn(C)c5C)c(Cl)ccc24)[C@H](C)CN(c2cccc4cc5n(c24)CCN(CCC(C)C)C5=O)C3=O)cc(C)c1Cl
log10 GI50: 0.97
--
compound: Cc1cc(OCCCc2c3n(c4c(-c5c(C)nn(C)c5C)c(Cl)ccc24)[C@H](C)CN(c2ccc4c(c2)c(C(=O)O)nn4C)C3=O)cc(C)c1Cl
log10 GI50: 0.99

Reported log10 GI50, compound Cc1cc(OCCCc2c3n(c4c(-c5c(C)nn(C)c5C)c(Cl)ccc24)[C@H](C)CN(c2cccc4c2ccn4CC(=O)O)C3=O)cc(C)c1Cl : ____
1.04

May I ask what log10 GI50 has been recorded for Cc1cc(OCCCc2c3n(c4c(-c5c(C)nn(C)c5C)c(Cl)ccc24)[C@H](C)CN(c2cn(CCN(C)C)c4cc(C(=O)O)ccc24)C3=O)cc(C)c1Cl ?
0.26
